- target_or_system: 5-HT transporter (Rattus norvegicus)
- Construct: frontal cortical membranes prepared from male S.D. rats; from tissue; host or cells: frontal cortical membranes of male S.D. (Sprague-Dawley) rats
- test_description: Rat Brain ^3 H-Paroxetine Binding Assay (RB 5HT Transporter)
- experimental_parameters: read-out: RB 5HT Transporter Ki; rat frontal cortical membranes; ^3 H-paroxetine (0.1 nM), 60 min, 25° C.; n = 1
assay_endpoint: pKi
Entry type: numeric. Quantity: pKi, the -log10 of concentration in molar units.

Query string: Fill in the blank: the reported pKi of Fc1cccc(OC2CN([C@H]3CC[C@H](c4c[nH]c5ccc(F)cc54)CC3)C2)c1 is ____.
Result string: 7.17

----------
- target_or_system: 5-HT transporter (Rattus norvegicus, UniProt P31652)
- Construct: frontal cortical membranes prepared from male S.D. rats; from tissue; host or cells: frontal cortical membranes of male S.D. (Sprague-Dawley) rats
- Sequence (P31652 whole entry): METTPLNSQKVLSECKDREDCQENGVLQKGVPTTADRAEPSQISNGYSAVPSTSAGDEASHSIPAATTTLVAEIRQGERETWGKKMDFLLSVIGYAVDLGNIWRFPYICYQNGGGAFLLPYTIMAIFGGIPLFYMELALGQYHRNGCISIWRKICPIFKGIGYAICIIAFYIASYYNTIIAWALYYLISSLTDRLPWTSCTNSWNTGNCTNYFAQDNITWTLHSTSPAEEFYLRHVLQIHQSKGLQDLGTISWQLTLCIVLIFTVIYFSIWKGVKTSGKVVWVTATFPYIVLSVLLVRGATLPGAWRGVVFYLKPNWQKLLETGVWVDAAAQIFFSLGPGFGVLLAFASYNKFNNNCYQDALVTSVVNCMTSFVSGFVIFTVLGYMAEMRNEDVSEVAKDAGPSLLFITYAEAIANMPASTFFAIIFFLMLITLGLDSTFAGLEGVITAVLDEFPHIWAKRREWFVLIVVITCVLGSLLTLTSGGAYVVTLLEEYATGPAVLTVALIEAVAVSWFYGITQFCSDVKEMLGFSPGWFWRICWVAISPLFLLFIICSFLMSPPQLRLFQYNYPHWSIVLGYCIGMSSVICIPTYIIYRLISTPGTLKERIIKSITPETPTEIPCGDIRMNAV
- test_description: Rat Brain ^3 H-Paroxetine Binding Assay (RB 5HT Transporter)
- experimental_parameters: RB 5HT Transporter Ki, rat frontal cortical membranes; ^3 H-paroxetine (0.1 nM), 60 min, 25° C.; n = 1
pKi: −log10 of the molar value.
Classification field: enter 1 for pKi values not below 7, -1 for values below it.

Solved entries:
chem_smiles | class_label
COc1cccc(OC2CN([C@H]3CC[C@@H](c4c[nH]c5ccc(C#N)cc54)CC3)C2)c1 | 1
Fc1cccc(OC2CN([C@H]3CC[C@@H](c4c[nH]c5ccccc54)CC3)C2)c1 | -1
COc1cccc(OC2CN([C@H]3CC[C@H](c4c[nH]c5ccc(C#N)cc54)CC3)C2)c1 | 1
Fc1cccc(OC2CN([C@H]3CC[C@H](c4c[nH]c5ccccc54)CC3)C2)c1 | -1

# evaluate next
Query string: Could you verify whether the entry COc1ccccc1NC1CN([C@H]2CC[C@H](c3c[nH]c4ccccc43)CC2)C1 shows pKi of no less than 7?
Result string: 1

----------
- target_or_system: 5-HT transporter (Rattus norvegicus, UniProt P31652)
- Construct: frontal cortical membranes prepared from male S.D. rats; from tissue; host or cells: frontal cortical membranes of male S.D. (Sprague-Dawley) rats
- test_description: Rat Brain ^3 H-Paroxetine Binding Assay (RB 5HT Transporter)
- experimental_parameters: rat frontal cortical membranes; ^3 H-paroxetine (0.1 nM), 60 min, 25° C.; n = 1; read-out: RB 5HT Transporter Ki
assay_endpoint: Ki (nM)
Just the number please, in nM, no unit attached.

chem_smiles | Ki (nM)
Fc1cccc(NC2CN([C@H]3CC[C@@H](c4c[nH]c5ccc(F)cc54)CC3)C2)c1 | 18
COc1ccccc1NC1CN([C@H]2CC[C@H](c3c[nH]c4ccc(F)cc43)CC2)C1 | 17
COc1cccc(OC2CN([C@H]3CC[C@H](c4c[nH]c5ccc(F)cc54)CC3)C2)c1 | 45

Query string: Record N#Cc1ccc2[nH]cc([C@H]3CC[C@@H](N4CC(Oc5cccc(F)c5)C4)CC3)c2c1 : what is its Ki with 5-HT transporter (Rattus norvegicus, UniProt P31652)?
Result string: 16
